Test system: Hepatotoxicity;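 further: combined hepatic side effect score as listed in the training data of the Drug Induced Liver Injury Prediction System (DILIps)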
METRIC NAME: HepSE_Combined Scores
Write no unit; give the number alone.

Please review the following examples before continuing.
Per the reported Hepatotoxicity data, Clc1ccc(C(c2ccccc2Cl)C(Cl)Cl)cc1 (configuration not stated) [MITOTANE] has HepSE_Combined Scores of 0

The compound CC#C[C@]1(O)CC[C@H]2[C@@H]3CCc4cc(O)ccc4[C@H]3CC[C@@]21C [ESTROGEN] , tested on Hepatotoxicity, showed HepSE_Combined Scores of 1

Test item COc1cc(NC(C)CCCN)c2ncccc2c1 (configuration not stated) [PRIMAQUINE] ; Hepatotoxicity; reported HepSE_Combined Scores was 0

HepSE_Combined Scores for Hepatotoxicity with input CN(C)c1cc(NC(=O)CNC(C)(C)C)c(O)c2c1C[C@H]1C[C@H]3[C@H](N(C)C)C(O)=C(C(N)=O)C(=O)[C@@]3(O)C(O)=C1C2=O [TIGECYCLINE] equals 4

Continuing:
Log: Hepatotoxicity, compound CCCCC[C@H](O)/C=C/[C@@H]1[C@H]2C/C(=C/CCCC(=O)O)O[C@H]2C[C@H]1O [EPOPROSTENOL] , HepSE_Combined Scores = 1

Summary line: CCCc1c2oc(C(=O)[O-])cc(=O)c2cc2c(=O)cc(C(=O)[O-])n(CC)c12.[Na+].[Na+] [NEDOCROMIL SODIUM] , Hepatotoxicity, reported HepSE_Combined Scores = 0

For C=C1/C(=C\C=C2/CCC[C@]3(C)[C@@H]([C@H](C)CCCC(C)(C)O)CC[C@@H]23)C[C@@H](O)C[C@@H]1O [CALCITRIOL] on Hepatotoxicity, measured HepSE_Combined Scores was 0
